Experimental Target: RKHD1 (Homo sapiens)
Sequence: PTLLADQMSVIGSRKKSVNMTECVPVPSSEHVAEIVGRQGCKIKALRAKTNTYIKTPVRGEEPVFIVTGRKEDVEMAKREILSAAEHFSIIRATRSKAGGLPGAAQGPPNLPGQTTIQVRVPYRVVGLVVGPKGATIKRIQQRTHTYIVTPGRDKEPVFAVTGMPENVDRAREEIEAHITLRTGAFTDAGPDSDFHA
Experimental Protocol: protein domain microarray probed with biotinylated miRNA; Domain array: 20 mM Tris-HCl pH 7.4, 200 mM KCl, 0.2 mM EDTA, 0.05% NP40, 2 ug/ul heparin, overnight 4 C. ORF array: PBS pH 7.0 with RNase inhibitor, 100 ng RNA; high values mean tight binding
Protocol Conditions: ssRNA
# Lookup of reported binding signal keyed by entry
Please don't drop the unit; write it after the number.

>  <Residue String>
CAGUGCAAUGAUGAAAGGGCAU

>  <Experimental Target>
RKHD1 (Homo sapiens)

>  <Measured Attribute>
binding signal

>  <Measurement>
1330 fluorescence intensity

$$$$
>  <Residue String>
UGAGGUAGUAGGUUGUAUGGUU

>  <Experimental Target>
RKHD1 (Homo sapiens)

>  <Measured Attribute>
binding signal

>  <Measurement>
1910 fluorescence intensity

$$$$
>  <Residue String>
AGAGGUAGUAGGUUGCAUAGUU

>  <Experimental Target>
RKHD1 (Homo sapiens)

>  <Measured Attribute>
binding signal

>  <Measurement>
2940 fluorescence intensity

$$$$

Okay, next one:
Fill in: RKHD1 (Homo sapiens) binding signal for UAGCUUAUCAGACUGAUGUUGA = 977 fluorescence intensity

----------
Experimental Target: TAT-SF1 (Homo sapiens, UniProt O43719)
Sequence: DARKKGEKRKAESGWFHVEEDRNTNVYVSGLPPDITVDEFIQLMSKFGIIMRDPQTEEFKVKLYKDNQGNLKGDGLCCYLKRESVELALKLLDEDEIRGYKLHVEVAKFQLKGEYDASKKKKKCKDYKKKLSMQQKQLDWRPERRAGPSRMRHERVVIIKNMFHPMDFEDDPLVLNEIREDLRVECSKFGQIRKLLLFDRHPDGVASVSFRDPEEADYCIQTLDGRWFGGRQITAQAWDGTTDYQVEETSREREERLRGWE
Experimental Protocol: protein domain microarray probed with biotinylated miRNA; Domain array: 20 mM Tris-HCl pH 7.4, 200 mM KCl, 0.2 mM EDTA, 0.05% NP40, 2 ug/ul heparin, overnight 4 C. ORF array: PBS pH 7.0 with RNase inhibitor, 100 ng RNA; high values mean tight binding
Protocol Conditions: ssRNA
Consider the following sequences and their measured binding signal readings.
Express it in fluorescence intensity; write the number only.

>  <Residue String>
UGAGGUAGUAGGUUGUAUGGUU

>  <Experimental Target>
TAT-SF1 (Homo sapiens, UniProt O43719)

>  <Measured Attribute>
binding signal

>  <Measurement>
116

$$$$

Okay, next one:
Lab entry: TAT-SF1 (Homo sapiens, UniProt O43719) assay, sequence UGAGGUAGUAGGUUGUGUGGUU , binding signal = 184

----------
Experimental Target: hnRNP-I(1-2) (Homo sapiens)
Sequence (P26599 40-280): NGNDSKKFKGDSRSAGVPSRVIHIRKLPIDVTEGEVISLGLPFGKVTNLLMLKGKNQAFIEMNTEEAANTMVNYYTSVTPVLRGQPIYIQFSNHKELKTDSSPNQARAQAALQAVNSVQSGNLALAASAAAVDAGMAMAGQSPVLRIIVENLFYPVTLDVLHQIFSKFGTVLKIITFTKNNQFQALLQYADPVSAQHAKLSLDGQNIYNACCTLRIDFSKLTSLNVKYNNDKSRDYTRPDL
Experimental Protocol: protein domain microarray probed with biotinylated miRNA; Domain array: 20 mM Tris-HCl pH 7.4, 200 mM KCl, 0.2 mM EDTA, 0.05% NP40, 2 ug/ul heparin, overnight 4 C. ORF array: PBS pH 7.0 with RNase inhibitor, 100 ng RNA; high values mean tight binding
Protocol Conditions: ssRNA
Measured Attribute: binding signal (fluorescence intensity)
Write the answer as a number in fluorescence intensity, unit excluded.

Consider the reported binding signal for these sequences:
>  <Residue String>
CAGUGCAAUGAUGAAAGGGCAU

>  <Measurement>
185

$$$$
>  <Residue String>
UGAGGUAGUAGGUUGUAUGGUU

>  <Measurement>
911

$$$$
>  <Residue String>
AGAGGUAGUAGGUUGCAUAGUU

>  <Measurement>
1010

$$$$

Let us move to another entry and its binding signal.
Here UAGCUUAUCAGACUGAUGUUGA was tested on hnRNP-I(1-2) (Homo sapiens), and its binding signal came to 72.7
